TGT: γ-secretase (Homo sapiens, UniProt P49768)
Construct: endogenous in cells; host or cells: SKNBE2 cells carrying APP 695 wild type
TEST DETAILS: Screening for γ-secretase-modulating activity in SKNBE2 cells carrying the APP 695-wild type (assay per Citron et al 1997)
Type: cell-based
ASSAY SETUP: @ 1 uM; SKNBE2 cells carrying APP 695-wild type
Is inhibition at 1 µM at least 20%? Then met. If not, not met.

>>> category("CC(C)CC(C(=O)O)c1cc(-c2ccc(C(F)(F)F)cc2)nc(-c2cccc(C(F)(F)F)c2)c1 (stereo not shown)")
"met"
>>> category("C=C(C)CC(C(=O)O)c1cc(-c2ccc(C(F)(F)F)cc2)nc(-c2cncc3ccccc23)c1 (stereo not shown)")
"not met"
>>> category("C=C(C)CC(C(=O)O)c1cc(-c2ccc(C(F)(F)F)cc2)nc(-c2cccc(F)c2F)c1 (stereo not shown)")
"not met"
>>> category("CC(C)CC(C(=O)O)c1cc(-c2ccc(F)cc2)nc(-c2ccc(C(F)(F)F)cc2)c1 (stereo not shown)")
"met"
>>> category("CC(C)CC(C(=O)O)c1cc(-c2ccc(C(F)(F)F)cc2)nc(-c2ccc(F)cc2F)c1 (stereo not shown)")
"not met"
>>> category("C=C(C)CC(C(=O)O)c1cc(-c2ccc(C(F)(F)F)cc2)nc(-c2ccc(C(F)(F)F)cc2C(F)(F)F)c1 (stereo not shown)")
"met"

Entry source: patent US7968725B2
